Ref: the supplement of paper PMC9112550

Tested on: Escherichia coli TOP10
MEASUREMENT_NOTES: shrunken log2 fold change of peptide-encoding DNA abundance (4.5 h post-induction vs induction); higher = less antimicrobial activity (less host growth inhibition)
EXPERIMENTAL_PARAMETERS: time post-induction: 4.5 h; library: site-saturation at positions 5, 18, 19, 20

- QUERY_SEQUENCE: "RRIRIRPPRLPRPRPRPQEAPRP"
  shrunken log2 fold change: 0.0332
- QUERY_SEQUENCE: "RRIRKRPPRLPRPRPRPYNQPRP"
  shrunken log2 fold change: -0.312
- QUERY_SEQUENCE: "RRIRTRPPRLPRPRPRPNNYPRP"
  shrunken log2 fold change: -0.754
- QUERY_SEQUENCE: "RRIRKRPPRLPRPRPRPHLCPRP"
  shrunken log2 fold change: 0.0127
- QUERY_SEQUENCE: "RRIRLRPPRLPRPRPRPSMKPRP"
  shrunken log2 fold change: -0.252
- QUERY_SEQUENCE: "RRIRNRPPRLPRPRPRPRFRPRP"
  shrunken log2 fold change: 0.0503
- QUERY_SEQUENCE: "RRIRPRPPRLPRPRPRPPAFPRP"
  shrunken log2 fold change: 0.166
- QUERY_SEQUENCE: "RRIRKRPPRLPRPRPRPKHWPRP"
  shrunken log2 fold change: 0.162
- QUERY_SEQUENCE: "RRIRNRPPRLPRPRPRPIGQPRP"
  shrunken log2 fold change: -0.0958
- QUERY_SEQUENCE: "RRIRRRPPRLPRPRPRPQNNPRP"
  shrunken log2 fold change: 0.198
- QUERY_SEQUENCE: "RRIRCRPPRLPRPRPRPNFVPRP"
  shrunken log2 fold change: -0.123
- QUERY_SEQUENCE: "RRIRDRPPRLPRPRPRPMHFPRP"
  shrunken log2 fold change: -0.142
- QUERY_SEQUENCE: "RRIRKRPPRLPRPRPRPNEYPRP"
  shrunken log2 fold change: 0.0869
- QUERY_SEQUENCE: "RRIRNRPPRLPRPRPRPDSSPRP"
  shrunken log2 fold change: -0.00145
- QUERY_SEQUENCE: "RRIRGRPPRLPRPRPRPRWQPRP"
  shrunken log2 fold change: 0.994

====

Measured shrunken log2 fold change, listed per entry.
System: Escherichia coli TOP10;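 note: peptides expressed intracellularly from a pBAD plasmid library in pooled LB shake-flask culture, induced with 0.3% L-arabinose, DNA abundance read by NGS, three biological replicates, DESeq2 with apeglm shrinkage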
MEASUREMENT_NOTES: shrunken log2 fold change of peptide-encoding DNA abundance (4.5 h post-induction vs induction); higher = less antimicrobial activity (less host growth inhibition)
EXPERIMENTAL_PARAMETERS: time post-induction: 4.5 h; library: site-saturation at positions 5, 18, 19, 20
ATTRIBUTE_MEASURED: shrunken log2 fold change

- QUERY_SEQUENCE: "RRIRCRPPRLPRPRPRPCQVPRP"
  OBSERVED_MEASUREMENT: -0.342
- QUERY_SEQUENCE: "RRIRQRPPRLPRPRPRPDPLPRP"
  OBSERVED_MEASUREMENT: 0.00221
- QUERY_SEQUENCE: "RRIRMRPPRLPRPRPRPWYMPRP"
  OBSERVED_MEASUREMENT: -0.147
- QUERY_SEQUENCE: "RRIRPRPPRLPRPRPRPDQHPRP"
  OBSERVED_MEASUREMENT: -0.0313
- QUERY_SEQUENCE: "RRIRHRPPRLPRPRPRPFIAPRP"
  OBSERVED_MEASUREMENT: -0.272
- QUERY_SEQUENCE: "RRIRIRPPRLPRPRPRPADKPRP"
  OBSERVED_MEASUREMENT: -0.194
- QUERY_SEQUENCE: "RRIRPRPPRLPRPRPRPQYFPRP"
  OBSERVED_MEASUREMENT: -0.0988
- QUERY_SEQUENCE: "RRIRFRPPRLPRPRPRPLDWPRP"
  OBSERVED_MEASUREMENT: -0.119
